- assay-system: T1, huIL-17RA-FLAG-polyHis (human, UniProt Q96F46 33-320)
- T1 construct: also called IL-17RA-FLAG-pHis; wild-type IL-17RA
- experiment-summary: binning; IL-17RA held by bead mAb D
measurement-type: normalized MFI
Please give only the number in your answer, with no unit.

Which measured normalized MFI value corresponds to AMH16/AML16 (antibody, IgG2, V domains shown, human mAb from IgG2 XenoMouse mice; also called AM-16; antibody O) VH: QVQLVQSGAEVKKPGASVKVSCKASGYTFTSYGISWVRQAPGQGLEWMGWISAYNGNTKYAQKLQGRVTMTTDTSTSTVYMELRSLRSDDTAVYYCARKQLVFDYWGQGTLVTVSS VL: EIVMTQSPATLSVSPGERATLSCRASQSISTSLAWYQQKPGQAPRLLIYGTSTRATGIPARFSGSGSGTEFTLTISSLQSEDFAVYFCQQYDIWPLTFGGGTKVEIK ? 1370

GET /values?readout=normalized MFI&item= AMH21/AML21 (antibody, IgG2, V domains shown, human mAb from IgG2 XenoMouse mice; also called AM-21; antibody Q) VH: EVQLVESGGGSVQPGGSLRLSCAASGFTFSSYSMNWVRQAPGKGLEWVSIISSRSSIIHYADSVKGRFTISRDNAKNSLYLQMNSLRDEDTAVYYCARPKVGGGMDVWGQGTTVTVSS VL: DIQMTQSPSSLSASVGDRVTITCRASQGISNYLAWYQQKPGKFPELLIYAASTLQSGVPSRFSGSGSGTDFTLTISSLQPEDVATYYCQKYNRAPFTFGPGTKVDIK 1380

Value lookup for normalized MFI; key = AMH11/AML11 (antibody, IgG2, V domains shown, human mAb from IgG2 XenoMouse mice; also called AM-11; antibody A) VH: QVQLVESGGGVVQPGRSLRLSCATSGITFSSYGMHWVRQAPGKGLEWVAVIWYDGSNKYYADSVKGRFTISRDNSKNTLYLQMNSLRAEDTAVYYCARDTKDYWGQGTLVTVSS VL: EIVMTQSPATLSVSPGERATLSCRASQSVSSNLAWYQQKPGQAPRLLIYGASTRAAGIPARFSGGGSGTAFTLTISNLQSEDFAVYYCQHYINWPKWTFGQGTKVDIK 337

Recorded normalized MFI of AMH8/AML8 (antibody, IgG2, V domains shown, human mAb from IgG2 XenoMouse mice; also called AM-8; antibody C) VH: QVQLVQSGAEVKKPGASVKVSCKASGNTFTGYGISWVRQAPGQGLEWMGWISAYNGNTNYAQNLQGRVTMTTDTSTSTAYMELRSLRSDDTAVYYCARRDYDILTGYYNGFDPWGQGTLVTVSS VL: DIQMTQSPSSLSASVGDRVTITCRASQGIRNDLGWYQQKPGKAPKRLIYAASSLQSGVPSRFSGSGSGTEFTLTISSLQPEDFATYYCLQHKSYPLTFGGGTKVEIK , please. 264

Requested read-out: normalized MFI. Entry: AMH20/AML20 (antibody, IgG2, V domains shown, human mAb from IgG2 XenoMouse mice; also called AM-20; antibody R) VH: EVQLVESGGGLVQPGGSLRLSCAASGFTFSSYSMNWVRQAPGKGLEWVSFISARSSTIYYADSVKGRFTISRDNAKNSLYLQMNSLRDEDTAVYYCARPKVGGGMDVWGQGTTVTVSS VL: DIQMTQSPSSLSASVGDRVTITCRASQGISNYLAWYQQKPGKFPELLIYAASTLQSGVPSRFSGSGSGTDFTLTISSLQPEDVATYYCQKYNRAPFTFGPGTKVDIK 783
